assay: Quality of castor oil containing emulsions with different steroids (pH, volume distribution, span, storage stability); format: physicochemical; conditions: emulsion of the steroid, vehicle CO+SBO (castor oil and soybean oil 70 : 30), heat sterilized
QUANTITY: pH

For this molecule ( CC(=O)[C@H]1CC[C@H]2[C@@H]3CC[C@@H]4C[C@@H](O)CC[C@]4(C)[C@H]3CC[C@]12C [Epipreganolone, 5β-pregnan-3β-ol-20-one] ), measured pH is 9.0

For this molecule ( C[C@]12CC[C@@H](O)C[C@H]1CC[C@@H]1[C@@H]2CC[C@]2(C)[C@@H](C(=O)CO)CC[C@@H]12 [Tetrahydrodeoxycorticosterone, 5β-pregnan-3α,21-diol-20-one] ), measured pH is 9.1

For this molecule ( CC(=O)[C@H]1CC[C@H]2[C@@H]3CC=C4C[C@@H](OS(=O)(=O)O)CC[C@]4(C)[C@H]3CC[C@]12C [Pregnenolone sulphate, 5-pregnen-3β-ol-20-one-sulphate] ), measured pH is 8.8

For this molecule ( C[C@]12C=CC(=O)C=C1CC[C@@H]1[C@@H]2[C@@H](O)C[C@@]2(C)[C@H]1CC[C@]2(O)C(=O)CO [Prednisolone, reference compound] ), measured pH is 8.9

For this molecule ( C[C@]12CC[C@@H](O)C[C@@H]1CC[C@@H]1[C@@H]2CC[C@]2(C)C(=O)CC[C@@H]12 ), measured pH is 9.2

For this molecule ( C[C@]12CCC(=O)C=C1CC[C@@H]1[C@@H]2[C@@H](O)C[C@@]2(C)[C@H]1CC[C@]2(O)C(=O)CO [Hydrocortisone, reference compound] ), measured pH is 8.8

For this molecule ( CC(=O)[C@H]1CC[C@H]2[C@@H]3CC[C@H]4C[C@H](O)CC[C@]4(C)[C@H]3CC[C@]12C ), measured pH is 9.0

Origin of the recorded values: patent EP0659072B1
